tested on: SZ95 human sebocyte cells; assay: Inhibition of de novo lipogenesis (14C-acetate incorporation) in cultured human sebocytes; type: cell-based; conditions: Homo sapiens, SZ95 sebocytes, 14C-acetate incorporation into lipids relative to vehicle; read-out: C9302E Sebocyte IC50
Reported values of IC50 for individual entries
observationType: IC50 (nM)

compound="CC(=O)NCC(C)c1ccc2nc(Oc3ccc(OCC4CC4)nc3)sc2c1 (centres unmarked) [Example 15]" observationtype=IC50 assayresult=4310
compound="COc1cc(C(=O)N2CCC3(CC2)CC(=O)c2cc(-c4nnn[nH]4)ccc2O3)cc2c1ccn2C1CC1 [Example 10]" observationtype=IC50 assayresult=1690
compound="CCOc1cc(C(=O)N2CCC3(CC2)CC(=O)c2cc(-c4cncc(C(N)=O)c4)ccc2O3)cc(OCC)c1-c1cccc(C(=O)O)c1 [Example 14]" observationtype=IC50 assayresult=8930
compound="CC(C)n1ncc2c1C(=O)CC1(CCN(C(=O)c3ccc4[nH]ncc4c3)CC1)C2 [Example 5]" observationtype=IC50 assayresult=201
compound="CC(=O)N[C@@H](C)C#Cc1ccc(Oc2ccc(OC(C)C)cc2)cc1 [Example 12]" observationtype=IC50 assayresult=121
compound="CCCOc1ccc(Oc2ccc(-c3ccc(C(C)NC(C)=O)cc3)cn2)cc1 (centres unmarked) [Example 13, reference compound]" observationtype=IC50 assayresult=3280
compound="CC(C)n1ncc2c1C(=O)CC1(CCN(C(=O)c3ccc4ccc(N)nc4c3)CC1)C2 [Example 3]" observationtype=IC50 assayresult=90
compound="CC(C)n1ncc2c1C(=O)CC1(CCN(C(=O)c3ccc4ccc(NC(C)(C)C)nc4c3)CC1)C2 [Example 4]" observationtype=IC50 assayresult=15
